This collection of values is drawn from patent EP1134585B1.

# Area % inhibition Wild-type listing for each entry below
Test system: thylakoids from Amaranthus retroflexus, Wild-type
assay overview: Biosensor fluorescence response (Table D), wild-type biomediator
Format: biochemical
measurement context: herbicide concentration 10^-6 M
Answer in %, number only, no unit symbol.

Consider the worked cases shown below.
CNc1nc(NC(C)C)nc(SC)n1 [Desmetryn]    92
CCNc1nc(Cl)nc(NC(C)C)n1 [Atrazine]    96
CCNc1nc(Cl)nc(NCC)n1 [Simazine]    95
N#Cc1cc(Br)c(O)c(Br)c1 [Bromoxynil]    97
CN(C)C(=O)Nc1ccc(Cl)c(Cl)c1 [Diuron]    99
CCNc1nc(NC(C)C)nc(SC)n1 [Ametryn]    99

Here is the next item to consider.
## Input Suppose we examine the compound CCC(C)c1cc([N+](=O)[O-])cc([N+](=O)[O-])c1O (stereo not shown) [Dinoseb] ; what Area % inhibition Wild-type value has been reported?
## Output 99

----------
Tested on: PS II
measurement context: PS II treated with CdCl2, refrigeration at 5°C, flow 0,2-2,0 ml/m
reported endpoint: sensitivity (concentration)

CN(C)C(=O)Nc1ccc(Cl)c(Cl)c1    lower than nanomolar
CCNc1nc(Cl)nc(NCC)n1    lower than nanomolar
CCNc1nc(Cl)nc(NC(C)C)n1    lower than nanomolar
